All figures here come from patent US20250066745A1.

assay: Luminescence activity assay of purified Gaussia luciferase mutants on fluoro-coelenterazine; type: biochemical; design: key: ratio of mutant luminescence intensity to wild-type Gaussia luciferase; details: Substrate f-CTZ (Table 16)
Hi there, I'd appreciate the recorded Activity of mutant relative to wild-type Gaussia luciferase without the signal peptide for every entry that follows.

Here are 5 molecules together with their reported answers.
MOLECULE	RESULT
F26C N27D A30V V31L A32G S33I A36V T37M L40G: Gaussia luciferase mutant (protein, SIGNAL (1)..(17), Gaussia luciferase mutant) MGVKVLFALICIAVAEAKPTENNEDCDIVVLGINFVMTDGDADRGKLPGKKLPLEVLKEMEANARKAGCTRGCLICLSHIKCTPKMKKFIPGRCHTYEGDKESAQGGIGEAIVDIPEIPGFKDLEPMEQFIAQVDLCVDCTTGCLKGLANVQCSDLLKKWLPQRCATFASKIQGQVDKIKGAGGD	0.065
I10T C11S A13D A15I E16R A17S: Gaussia luciferase mutant (protein, SIGNAL (1)..(17), Gaussia luciferase mutant) MGVKVLFALTSIDVIRSKPTENNEDFNIVAVASNFATTDLDADRGKLPGKKLPLEVLKEMEANARKAGCTRGCLICLSHIKCTPKMKKFIPGRCHTYEGDKESAQGGIGEAIVDIPEIPGFKDLEPMEQFIAQVDLCVDCTTGCLKGLANVQCSDLLKKWLPQRCATFASKIQGQVDKIKGAGGD	0.086
K66N P84L E102A S103I A104G E110P D123N L124M V138D: Gaussia luciferase mutant (protein, SIGNAL (1)..(17), Gaussia luciferase mutant) MGVKVLFALICIAVAEAKPTENNEDFNIVAVASNFATTDLDADRGKLPGKKLPLEVLKEMEANARNAGCTRGCLICLSHIKCTLKMKKFIPGRCHTYEGDKAIGQGGIGPAIVDIPEIPGFKNMEPMEQFIAQVDLCDDCTTGCLKGLANVQCSDLLKKWLPQRCATFASKIQGQVDKIKGAGGD	5.207
Q152K Q163S T167G S170V G174K Q175E K180: Gaussia luciferase mutant (protein) MGVKVLFALICIAVAEAKPTENNEDFNIVAVASNFATTDLDADRGKLPGKKLPLEVLKEMEANARKAGCTRGCLICLSHIKCTPKMKKFIPGRCHTYEGDKESAQGGIGEAIVDIPEIPGFKDLEPMEQFIAQVDLCVDCTTGCLKGLANVKCSDLLKKWLPSRCAGFAVKIQKEVDKIKGAGGD	0.512
K66N P84A E102K S103I E110G L124M V138E: Gaussia luciferase mutant (protein, SIGNAL (1)..(17), Gaussia luciferase mutant) MGVKVLFALICIAVAEAKPTENNEDFNIVAVASNFATTDLDADRGKLPGKKLPLEVLKEMEANARNAGCTRGCLICLSHIKCTAKMKKFIPGRCHTYEGDKKIAQGGIGGAIVDIPEIPGFKDMEPMEQFIAQVDLCEDCTTGCLKGLANVQCSDLLKKWLPQRCATFASKIQGQVDKIKGAGGD	0.896

Give Activity of mutant relative to wild-type Gaussia luciferase without the signal peptide for each of the items listed below.
1. F26R V29E A30G V31L A36D T37E L40S K159: Gaussia luciferase mutant (protein) MGVKVLFALICIAVAEAKPTENNEDRNIEGLASNFDETDSDADRGKLPGKKLPLEVLKEMEANARKAGCTRGCLICLSHIKCTPKMKKFIPGRCHTYEGDKESAQGGIGEAIVDIPEIPGFKDLEPMEQFIAQVDLCVDCTTGCLKGLANVQCSDLLKKWLPQRCATFASKIQGQVDKIKGAGGD
2. F26G N27Y A30G V31L A32G S33L A36Y T37V L40E: Gaussia luciferase mutant (protein, SIGNAL (1)..(17), Gaussia luciferase mutant) MGVKVLFALICIAVAEAKPTENNEDGYIVGLGLNFYVTDEDADRGKLPGKKLPLEVLKEMEANARKAGCTRGCLICLSHIKCTPKMKKFIPGRCHTYEGDKESAQGGIGEAIVDIPEIPGFKDLEPMEQFIAQVDLCVDCTTGCLKGLANVQCSDLLKKWLPQRCATFASKIQGQVDKIKGAGGD

OUTPUT:
0.009
0.025
